# System: EKVX NSCLC
# PROTOCOL NOTES: NCI tumour cell line growth inhibition, 48 h
READOUT KIND: TGI

MOLECULE: COc1ccc(-c2cc(=O)c3cc4c(cc3[nH]2)OCO4)cc1
RESULT: 41.3 µM

MOLECULE: CC(=O)O[C@H]1CCn2c3c(c(C)c21)C(=O)C(N1CC1)=C(C)C3=O
RESULT: > 10 µM

MOLECULE: O=C(N/N=C/c1cc([N+](=O)[O-])ccc1O)c1cccc2ccccc12
RESULT: 29.7 µM

MOLECULE: CS(=O)(=O)Nc1ccc(N=Cc2c(O)[nH]c3ccccc23)cc1
RESULT: > 25 µM

MOLECULE: CC(=O)Nc1ccc(/C=C/C(=O)c2sc(-c3nc(C)c(C(=O)/C=C/c4ccc(NC(C)=O)cc4)s3)nc2C)cc1
RESULT: > 100 µM

MOLECULE: C=C1CCc2occ(C)c2C2C1C1=C(CC(C)C1=O)C1OC12C (stereo unspecified)
RESULT: > 100 µM

###

Listing: TGI of selected molecules
# System: OVCAR-4 ovarian
# PROTOCOL NOTES: NCI tumour cell line growth inhibition, 48 h

MOLECULE: CCOc1ccc(NCC2CC/C(=C\c3ccc(O)cc3)C2=O)cc1 (stereo unspecified)
TGI: 31.5 µM
//
MOLECULE: CS/C(C)=N/OC(=O)NCCCCNc1ccc(N=[N+]=[N-])cc1
TGI: > 100 µM
//
MOLECULE: CC1=N[C@](C)(C2CC3C=CC2C3=O)COC1=O (stereo partly specified)
TGI: > 100 µM
//
MOLECULE: O=c1c2cn[nH]c2nc2scc(-c3ccc(Cl)cc3)n12
TGI: > 100 µM
//
MOLECULE: Nc1n[nH]c2cccc(C#Cc3cccc(C(=O)Nc4cc(CN5CCOCC5)cc(C(F)(F)F)c4)c3)c12
TGI: 23.1 µM
//
MOLECULE: COc1ccc(-c2cc(=O)c3cc4c(cc3[nH]2)OCO4)cc1
TGI: > 100 µM
//
MOLECULE: c1ccc(CSc2nnc3c4ccccc4c4ccccc4c3n2)cc1
TGI: > 96.3 µM
//
MOLECULE: COc1cccc(C2SCC(=O)N2c2ccc(-n3c(-c4ccccc4)nc4ccccc4c3=O)cc2)c1OC (stereo unspecified)
TGI: > 100 µM
//
MOLECULE: FC(F)(F)c1ccc(-c2cnc(Cl)nc2NCc2cc(C(F)(F)F)cc(C(F)(F)F)c2)cc1
TGI: > 100 µM
//
MOLECULE: CC(C)C1COC(c2cccc(C3=N[C@@H](C(C)C)CO3)n2)=N1 (stereo partly specified)
TGI: > 100 µM
//
MOLECULE: CN(C)CC1CCCCCC(CN(C)C)C1=O (stereo unspecified)
TGI: 21.7 µM
//
MOLECULE: CC1(C)OC(=O)C2(O1)C(=O)C1CCCCC12 (stereo unspecified)
TGI: > 100 µM
//
MOLECULE: Cc1n[nH]c(=O)n1/N=C\CC/C=N\n1c(C)n[nH]c1=O
TGI: > 100 µM
//
MOLECULE: COc1cc(/C=C2\C(=O)N(Cc3ccccc3)C(c3ccccc3)S2(=O)=O)cc(OC)c1OC (stereo unspecified)
TGI: > 100 µM
//
MOLECULE: O=C1NC2C=CN(Cc3ccccc3)C=C2C(=O)N2CCCC12 (stereo unspecified)
TGI: > 100 µM
//
MOLECULE: CCCC(Sc1ccccc1)P(=O)(c1ccccc1)c1ccccc1 (stereo unspecified)
TGI: > 100 µM

FYI, the data here is from PubChem BioAssay (NCI).
